target.or.system: T1, human TPBG protein, full-length, on the cell surface (human, UniProt Q13641 32-420)
T1 sequence (looked up): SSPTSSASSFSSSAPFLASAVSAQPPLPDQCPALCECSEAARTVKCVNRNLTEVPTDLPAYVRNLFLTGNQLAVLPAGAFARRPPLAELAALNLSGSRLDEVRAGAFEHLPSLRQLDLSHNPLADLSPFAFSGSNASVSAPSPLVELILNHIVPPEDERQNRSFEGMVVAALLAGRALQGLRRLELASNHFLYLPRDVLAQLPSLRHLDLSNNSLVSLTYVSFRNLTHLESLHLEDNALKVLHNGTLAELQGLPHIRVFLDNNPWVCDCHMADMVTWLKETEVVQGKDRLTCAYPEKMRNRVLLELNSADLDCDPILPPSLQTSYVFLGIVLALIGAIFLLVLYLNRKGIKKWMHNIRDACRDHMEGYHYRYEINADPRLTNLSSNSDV
assay.name: cell-based or functional assay
value.kind: IC50 of cell killing, NCI-H1568 cells (CellTiter-Glo, 5 days) (nM)
Give bare numbers, in nM.

{"columns": ["binder", "numeric.readout"],
 "data": [
  ["Humanized Antibody 28D4-7-MMAF (antibody, V domains shown, MC-MMAF on cysteines reduced with TCEP (sites not given), DAR 3.0-5.0 per antibody) VH: EVQLVESGGGLVKPGGSLRLSCAASGFTFSNYVMSWIRQAPGKGLEWVAEISTGGSHTYYSDTVTGRFTISRDNAKKSLYLQMNSLRAEDTAVYYCIMFYYGSSYSMDYWGQGTTVTVSS VL: DIQMTQSPSSLSASVGDRVTITCRASQDIRNYLNWYQQKPGKAPKLLIYHTSRLHSGVPSRFSGSGSGTDYTFTISSLQPEDIATYYCQQGDTLPLTFGQGTRLEIK", 0.066],
  ["Humanized Antibody 28D4-3-MMAF (antibody, V domains shown, MC-MMAF on cysteines reduced with TCEP (sites not given), DAR 3.0-5.0 per antibody) VH: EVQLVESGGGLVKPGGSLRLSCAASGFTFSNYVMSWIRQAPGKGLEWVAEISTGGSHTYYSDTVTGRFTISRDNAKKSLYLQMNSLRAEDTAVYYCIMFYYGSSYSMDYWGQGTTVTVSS VL: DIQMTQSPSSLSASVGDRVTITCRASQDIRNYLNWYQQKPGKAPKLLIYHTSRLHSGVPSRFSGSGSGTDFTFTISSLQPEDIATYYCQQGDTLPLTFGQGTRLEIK", 0.061]
]}

Please state, for each entry, its recorded IC50 of cell killing, NCI-H1568 cells (CellTiter-Glo, 5 days).
1. Humanized Antibody 28D4-4-MMAF (antibody, V domains shown, MC-MMAF on cysteines reduced with TCEP (sites not given), DAR 3.0-5.0 per antibody) VH: EVQLVESGGGLVKPGGSLRLSCAASGFTFSNYVMSWARQAPGKRLEWVAEISTGGSHTYYSDTVTGRFTISRDNAKKSLYLQMNSLRAEDTAVYYCIMFYYGSSYSMDYWGQGTTVTVSS VL: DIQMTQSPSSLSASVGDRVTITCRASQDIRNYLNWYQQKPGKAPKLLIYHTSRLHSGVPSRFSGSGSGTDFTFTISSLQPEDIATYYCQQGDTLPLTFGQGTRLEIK
2. Chimeric Antibody 28D4-MMAF (antibody, V domains shown, MC-MMAF on cysteines reduced with TCEP (sites not given), DAR 3.0-5.0 per antibody) VH: DVQLVESGGGLVRPGGSLKLSCAASGFTFSNYVMSWARQSPEKRLEWVAEISTGGSHTYYSDTVTGRFTISRDNAKKALYLEMSSLRSEDTAIYYCIMFYYGSSYSMDYWGQGTSVTVSS VL: DIQMTQSTSSLSASLGDRITISCRASQDIRNYLNWYQQKPDGTVKLLIYHTSRLHSGVPSRFSGSGSGTDYSLTISNLEQEDIATYFCQQGDTLPLTFGAGTRLELK

0.074
0.091
